Origin of the recorded values: PubChem BioAssay AID2060513

Recorded viability, T/C by entry
System: 299254-011-R-J1-PDC complex spheroids viability;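 also: spheroids exposed to the agents for seven days before readout; percent viability relative to DMSO vehicle control wells = 100%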
Test: Anticancer human tumor 299254-011-R-J1-PDC patient-derived melanoma cell line growth inhibition [GQUAD]
Settings: second compound 0.316 µM; first compound 3.16 µM; stronger effect = lower value
Kindly provide the numeric value in % only, without the unit symbol.

Field: example entries. Status: answers known.
molecule="O=C(NO)c1cnc(N2CCN(S(=O)(=O)c3ccc4ccccc4c3)CC2)nc1 + Cc1cnc(CNC(=O)c2c(=O)c3ccc(N4CCCN(C)CC4)nc3n3c2sc2ccccc23)cn1" quantity="viability, T/C" unit_abbreviation=% test_value=0.14
molecule="CC(C)(O)C1CCC(Nc2ccc3ncc(-c4cccc(C(F)(F)F)c4)n3n2)CC1 (stereo unspecified) + Cc1cnc(CNC(=O)c2c(=O)c3ccc(N4CCCN(C)CC4)nc3n3c2sc2ccccc23)cn1" quantity="viability, T/C" unit_abbreviation=% test_value=60

IN: Checklist item: viability, T/C tested on 299254-011-R-J1-PDC complex spheroids viability, entry O=c1[nH]cc(F)c(=O)[nH]1 + Cc1[nH]c2ccc(F)cc2c1-c1nc2c3cccnc3c3ncccc3c2[nH]1 , value?;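 also: spheroids exposed to the agents for seven days before readout; percent viability relative to DMSO vehicle control wells = 100%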
OUT: 97.5

IN: Any idea what viability, T/C came out for CC(C)n1c(=O)n(C)c2cnc3cc(F)c(-c4ccc(OCCCN5CCCCC5)nc4)cc3c21 + Cc1[nH]c2ccc(F)cc2c1-c1nc2c3cccnc3c3ncccc3c2[nH]1 on 299254-011-R-J1-PDC complex spheroids viability?
OUT: 84.4

IN: API: value(readout= viability, T/C, system= 299254-011-R-J1-PDC complex spheroids viability, query= O=C(NO)c1cnc(N2CCN(S(=O)(=O)c3ccc4ccccc4c3)CC2)nc1 + CN(C)c1ccc(Nc2c3ccc(NC(=O)CCN4CCCC4)cc3nc3cc(NC(=O)CCN4CCCC4)ccc23)cc1 );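 also: spheroids exposed to the agents for seven days before readout; percent viability relative to DMSO vehicle control wells = 100%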
OUT: 0.2
